MEASURED ON: Torsin-1A (Homo sapiens) (UniProt O14656)
Sequence (O14656 whole entry, looked up): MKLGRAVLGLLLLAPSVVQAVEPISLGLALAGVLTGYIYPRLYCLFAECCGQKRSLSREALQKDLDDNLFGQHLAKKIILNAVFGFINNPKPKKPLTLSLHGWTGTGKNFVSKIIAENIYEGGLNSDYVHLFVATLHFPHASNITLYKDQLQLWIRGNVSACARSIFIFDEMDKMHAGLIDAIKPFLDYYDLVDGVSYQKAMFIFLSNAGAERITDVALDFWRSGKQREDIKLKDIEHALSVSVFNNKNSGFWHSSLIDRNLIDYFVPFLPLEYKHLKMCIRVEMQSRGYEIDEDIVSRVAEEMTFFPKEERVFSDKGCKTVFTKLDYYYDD
PROTOCOL NOTES: small-molecule binders of mutant TOR1A in lysate, primary screen, cell lysate, small-molecule microarray, COS7 lysate, 635/667 nm fluorescence (AID 1150);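 further: score pools 667 nm emission and signal to noise measuring lysate protein binding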
EXPERIMENTAL SETUP: COS7 hTOR1A mutant lysate, 635 nm fluorescence, higher = more signal
Tick t if composite z-score is 0.7 or greater. Tick f if composite z-score is less than 0.7.

Examples from the recorded data:
| COMPOUND | ASSIGNED LABEL |
| --- | --- |
| COc1ccc(CCNC(=O)[C@@H]2c3ccccc3C(=O)N(C(C)C)[C@H]2c2ccc(CO)cc2)cc1 | f |
| COc1cc2c(cc1O)C(C)N(Cc1sc3ccccc3c1Cl)CC2 (configuration not stated) | f |
| C[C@@]1([C@@H](NS(=O)(=O)c2cccc3cccnc23)c2ccc(-c3ccccc3)cc2)C[C@H]1C1CCCCC1 | f |
| O=C1C2C=CC(C(O)C3CC=CCC3)N(Nc3ccc([N+](=O)[O-])cc3)C2C(=O)N1c1ccccc1 (configuration not stated) | f |
| COc1ccc([Si](C)(C)[C@H]2[C@H](CC(=O)N3CCC[C@H]3CO)O[C@@]3(C(=O)N(Cc4cccc(N5CCCCC5=O)c4)c4ccccc43)[C@@H]2C)cc1 | t |
| COc1ccc([Si](C)(C)[C@H]2[C@H](CC(=O)N(CCO)Cc3ccccc3)O[C@@]3(C(=O)N(Cc4ccc(N5C(=O)c6cccc7cccc5c67)cc4)c4ccccc43)[C@@H]2C)cc1 | f |
| COc1ccc(CCNC(=O)[C@@]2(C)c3ccccc3C(=O)N(Cc3ccc(OC(F)(F)F)cc3)[C@H]2c2ccc(CO)cc2)cc1 | t |
| C[C@]1(C(=O)NCC(F)(F)F)c2ccccc2C(=O)N(Cc2cc(C(F)(F)F)cc(C(F)(F)F)c2)[C@H]1c1ccc(CO)cc1 | f |

Problem: Is it the case that C=CCNC(=O)[C@@H]1[C@H]2C(=O)O[C@H](c3ccccc3)[C@H](c3ccccc3)N2[C@H](c2ccc(O)cc2)[C@@]12C(=O)N(C(=O)OCCOC)c1ccc(C#CCC(C(=O)OC)C(=O)OC)cc12 has composite z-score reaching or exceeding 0.7?
Solution: t

Problem: Note, next up: COCCCNC(=O)[C@]1(Cc2ccccc2N=[N+]=[N-])N=C(c2ccc(OCCCO)cc2)O[C@@H]1c1ccccc1
Solution: t

Problem: Try CCOC(=O)C1=CCC(c2ccncc2)N(S(=O)(=O)c2ccc(C)cc2)C1 (configuration not stated) next.
Solution: t

Problem: // same read-out, input: [N-]=[N+]=Nc1ccccc1C[C@@]1(C(=O)NCC(O)CO)N=C(c2ccc(OCCCO)cc2)O[C@@H]1c1ccccc1N=[N+]=[N-] (some centres not stated)
Solution: f

Problem: Thanks! And C=CC[C@]1(C(=O)NCC(O)CO)N=C(c2ccc(OCCCO)cc2)O[C@H]1c1ccccc1CN=[N+]=[N-] (some centres not stated) ?
Solution: t

Problem: Consider next the compound C=CCNC(=O)[C@H]1[C@@H]2C(=O)O[C@@H](c3ccccc3)[C@@H](c3ccccc3)N2[C@@H](c2ccc(O)cc2)[C@]12C(=O)N(C(=O)OCCOC)c1ccc(C#Cc3ccc(OC)cc3)cc12 in the same way.
Solution: f

Problem: And the next one, CC(C)(C)OC(=O)CC[C@@]1(C(N)=O)N=C(c2ccc(OCCCO)cc2)O[C@@H]1c1ccccc1CN=[N+]=[N-] ?
Solution: t

Problem: Proceed to C=CCNC(=O)[C@H]1[C@@H]2C(=O)O[C@@H](c3ccccc3)[C@@H](c3ccccc3)N2[C@@H](c2ccc(OCCO)cc2)[C@]12C(=O)Nc1ccc(C#Cc3ccc(OC)cc3)cc12
Solution: f

Problem: Similarly, COc1ccc(NN2C(C(O)c3ccccc3)C=CC3C(=O)N(C4CCCCC4)C(=O)C32)cc1 (configuration not stated) ?
Solution: f

Problem: Let us now turn to COC(=O)[C@@]1(Cc2ccccc2)[C@H]2c3cc(C(=O)N(C)C)n(CCF)c3C[C@H]2CN1C(=O)c1ccccc1
Solution: t

Problem: Record: [N-]=[N+]=NCc1ccccc1[C@H]1OC(c2ccc(OCCCO)cc2)=N[C@@]1(Cc1ccccc1N=[N+]=[N-])C(N)=O
Solution: t

Problem: How about COc1ccc([Si](C)(C)[C@H]2[C@H](CC(=O)N3CCC[C@H]3CO)O[C@@]3(C(=O)N(C)c4ccccc43)[C@@H]2C)cc1 ?
Solution: t

----------
System: Human papillomavirus type 1a E7 protein (residues 1-88)
PROTOCOL NOTES: HPV1a E7 small-molecule binders, primary screen, biochemical, small-molecule microarray, residues 1-88, 635 nm (AID 1129)
EXPERIMENTAL SETUP: small-molecule microarray binding, fluorescence 635 nm; higher = more signal
Label scheme for composite z-score: lower than 1 is Condition not met, 1 and above is Condition met.

Example entries and their recorded answers appear below.
| COMPOUND | ASSIGNED LABEL |
| --- | --- |
| CN1C(=O)C2C=CC(C(O)c3ccc(I)cc3)N(N(c3ccccc3)c3ccccc3)C2C1=O (stereo not given) | Condition not met |
| CC(C)c1ccc(NN2C(C(O)c3ccccc3)C=CC3C(=O)N(c4ccccc4)C(=O)C32)cc1 (stereo not given) | Condition met |
| Cc1ccc(S(=O)(=O)N2[C@@H](c3ccccc3)C(C(=O)O)=CC[C@H]2c2ccc(F)cc2)cc1 | Condition met |

Problem: State whether the measured composite z-score reaches 1, counting equality as reaching it, for COC(=O)C(CC#Cc1ccc2c(c1)[C@]1(C(=O)N2)[C@H](C(=O)N2CCN(c3ncccn3)CC2)[C@H]2C(=O)O[C@H](c3ccccc3)[C@H](c3ccccc3)N2[C@@H]1c1ccc(O)cc1)C(=O)OC
Solution: Condition met

Problem: Similarly, CN1C(=O)C2C=CC(C(O)c3ccc([N+](=O)[O-])cc3)N(Nc3ccccc3)C2C1=O (stereo not given) ?
Solution: Condition met

----------
Catalogue of composite z-score readings, one per entry.
PROTOCOL NOTES: small-molecule microarray binders of probe aDKK1, primary screen, biochemical, biotinylated probe, 635/667 nm fluorescence (AID 1099);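 further: score merges 667nm spot fluorescence with signal to noise across triplicate slides; reference of the scale not given here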
EXPERIMENTAL SETUP: higher = more signal

Problem: May I ask what composite z-score has been recorded for [N-]=[N+]=NCc1ccccc1C[C@@]1(C(N)=O)N=C(c2ccc(OCCCO)cc2)O[C@@H]1c1ccccc1N=[N+]=[N-] ?
Solution: 0.747

Problem: Lookup C=CCC(OC(C)=O)[C@@H]1[C@@H](N(Cc2ccc(-c3ccccc3)cc2)C(=O)Cc2ccc(OC)cc2)c2cc(OCCCO)ccc2N1C(=O)c1ccc2ccccc2c1 (stereo partly drawn)
Solution: 0.0361

Problem: Please give the result for C=C(C(=O)CC[C@@H](OC(=O)c1ccccc1-c1ccccc1C(=O)O)c1ccc(OCCO)cc1)C(C)C too.
Solution: -0.0581

Problem: Could you do the same for N#Cc1ccc(NN2C(C(O)c3ccc(B(O)O)cc3)C=CC3CN(c4ccccc4)C(=O)C32)cc1 (stereo not drawn) , please?
Solution: 0.0933

Problem: Similarly, O=C1C2C=CC(C(O)C3CC=CCC3)N(Nc3ccc([N+](=O)[O-])cc3)C2C(=O)N1c1ccccc1 (stereo not drawn) ?
Solution: 1.47

Problem: Again, but for COc1cc(Cc2cc3c(c(-c4ccccc4)n2)[Si](C(C)C)(C(C)C)OC3)cc(OC)c1OC
Solution: -0.113

Problem: Now try CC[C@@H](O[Si](C#C[Si](C(C)C)(C(C)C)C(C)C)(C(C)C)C(C)C)c1cn([C@H](C)c2ccccc2)nn1 .
Solution: 0.0317

Problem: Next entry: CC(C)[Si](C#Cc1ccccc1)(O[C@H](c1ccccc1)c1cn(Cc2ccccc2)nn1)C(C)C
Solution: 0.191

----------
PROTOCOL NOTES: HepG2 liver cancer cell viability effects, profiling panel, resazurin fluorescence, 24 h, PK04 Diversity Set (AID 1172); further: test concentration not given here
EXPERIMENTAL SETUP: higher = more signal
Parameter: z-score. Scope: all listed entries.

| COMPOUND | ENDPOINT VALUE |
| --- | --- |
| CCc1cccc(NC(=O)O[C@H]2[C@H](OC(=O)Nc3ccccc3-c3ccccc3)[C@H](OC(=O)Nc3ccccc3-c3ccccc3)[C@@H](OC)O[C@@H]2CO)c1 | 0.235 |

Problem: I am curious: what z-score value has been reported for COc1ccc(NN2C(C(O)c3ccccc3)C=CC3C(=O)N(C4CCCCC4)C(=O)C32)cc1 (configuration not stated) ?
Solution: -0.403

Problem: # repeat for COC(=O)C(CC#Cc1ccc2c(c1)[C@]1(C(=O)N2)[C@H](c2ccccc2OCCO)N2[C@H](c3ccccc3)[C@H](c3ccccc3)OC(=O)[C@H]2[C@@H]1C(=O)N1CCN(c2ncccn2)CC1)C(=O)OC
Solution: -0.0452

Problem: Next up: COC(=O)[C@@]1(Cc2ccc(F)cc2)[C@H]2c3cc(C(=O)N4CCCC4)n(Cc4ccc(OC(F)(F)F)cc4)c3C[C@H]2CN1C(=O)c1ccccc1
Solution: 0.178

Problem: Lookup CS(=O)(=O)CCOC(=O)C1=CC(CCCO)=CC(C2CC2)N(Cc2sc3ccccc3c2Cl)C=C1C(=O)OCCS(C)(=O)=O (configuration not stated)
Solution: -0.0631

Problem: How about this compound: Cc1ccc(S[C@]2(C(=O)NCc3ccccc3)CC(=O)N(Cc3ccccc3C(F)(F)F)[C@@H]2c2ccc(CO)cc2I)cc1
Solution: 0.213

Problem: Entry to check: CCOC(=O)C1=CC[C@@H](c2ccccc2)N(S(=O)(=O)c2ccc(C)cc2)[C@@H]1C#N
Solution: 0.794
